B1: library; numbered along this chain (parent)
chain: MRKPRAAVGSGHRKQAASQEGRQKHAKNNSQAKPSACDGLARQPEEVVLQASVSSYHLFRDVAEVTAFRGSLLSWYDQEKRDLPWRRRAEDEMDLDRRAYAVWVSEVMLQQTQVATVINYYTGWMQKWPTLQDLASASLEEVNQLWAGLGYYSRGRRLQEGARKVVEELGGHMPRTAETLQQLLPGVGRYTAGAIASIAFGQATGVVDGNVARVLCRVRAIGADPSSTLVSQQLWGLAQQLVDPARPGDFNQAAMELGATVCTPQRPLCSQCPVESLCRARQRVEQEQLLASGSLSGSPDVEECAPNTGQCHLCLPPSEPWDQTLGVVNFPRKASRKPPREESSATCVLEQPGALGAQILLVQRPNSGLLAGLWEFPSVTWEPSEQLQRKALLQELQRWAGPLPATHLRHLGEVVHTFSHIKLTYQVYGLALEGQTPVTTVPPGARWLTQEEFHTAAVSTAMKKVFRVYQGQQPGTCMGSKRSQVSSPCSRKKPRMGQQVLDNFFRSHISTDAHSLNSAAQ

- Variants of: B1
- METHOD_SUMMARY: 8OG:A repair function score (normalized; synonymous = 0, nonsense = -1) (normalized log-likelihood score); higher = more repair activity (WT-like);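 further: cells sorted at 72 h after reporter transfection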
- CONDITION_SUMMARY: with 8OG:A DNA repair reporter (GFP) in HEK-293 MUTYH KO cells
Use t when the recorded 8OG:A repair function score is no lower than -0.4; use f when it is lower.

These solved cases illustrate the format of a correct answer.
F504L : t
V465S : f
T424G : t
M255T : f
N517P : t

Reported 8OG:A repair function score reaches at least -0.4 for H407W ?
t

Reported 8OG:A repair function score reaches at least -0.4 for Q113K ?
t

Reported 8OG:A repair function score reaches at least -0.4 for C314T ?
f

Reported 8OG:A repair function score reaches at least -0.4 for L241H ?
f

Reported 8OG:A repair function score reaches at least -0.4 for G171M ?
f

Reported 8OG:A repair function score reaches at least -0.4 for S298I ?
t

Reported 8OG:A repair function score reaches at least -0.4 for N210W ?
f

Reported 8OG:A repair function score reaches at least -0.4 for E256L ?
f

Reported 8OG:A repair function score reaches at least -0.4 for F68L ?
t
